Reference for the values: ChEMBL document CHEMBL1201862

# System: IGROV-1
# procedure_details: NCI tumour cell line growth inhibition, 48 h
Active and inactive are the calls of the source. Cut-off read from the data, not from the text of the source: active = GI50 up to about 1.1 µM and inactive = higher.

compound: C=C1C[C@]23CC[C@@H]4C(CO)(CO)CC(=O)C[C@]4(C)[C@@H]2C(O)C[C@H]1C3 (some centres undefined)
target_or_system: IGROV-1
GI50: > 100 µM (inactive)
--
compound: [N-]=[N+]=Nc1ncnc2c1sc(=S)n2-c1ccccc1
target_or_system: IGROV-1
GI50: > 100 µM (inactive)
--
compound: CC(=O)Nc1ccc(S(=O)(=O)/N=C2\C=CC(=O)c3ccccc32)cc1
target_or_system: IGROV-1
GI50: 2.58 µM (inactive)
--
compound: CC(=O)C1(O)CCC2(O)C3(O)CC=C4CC(O)CCC4(C)C3CC(OC(=O)c3ccc(O)cc3)C12C (centres undefined)
target_or_system: IGROV-1
GI50: > 100 µM (inactive)
--
compound: CC1(Br)CC2OC3(Br)C=CC(C)(O)C2(CC1=O)C3(C)C (centres undefined)
target_or_system: IGROV-1
GI50: > 100 µM (inactive)
--
compound: COc1ccc2c(c1)CCN=C2c1ccccc1CCCCl
target_or_system: IGROV-1
GI50: 20.1 µM (inactive)
--
compound: COc1cc2c(cc1O)C(c1cc(O)c(O)c(OC)c1)C(O)(C(=O)O)C(CO)C2O (centres undefined)
target_or_system: IGROV-1
GI50: > 100 µM (inactive)
--
compound: CN(C=O)/C=C/c1cc(O)ccc1O
target_or_system: IGROV-1
GI50: 51.3 µM (inactive)
--
compound: CC(=O)OC1=CC2(OC(C)=O)CC(C)(C)C1C1C(=O)C=CC(=O)C12 (centres undefined)
target_or_system: IGROV-1
GI50: > 50.7 µM (inactive)
--
compound: O=C(COc1ccc2c(=O)cc(-c3ccc(Cl)cc3)oc2c1)N1CCN(c2ccccc2)CC1
target_or_system: IGROV-1
GI50: > 100 µM (inactive)
--
compound: COc1cc(C=O)c(-c2cc3c(cc2C2(C)OCCS2)OCO3)c(OC)c1OC (centres undefined)
target_or_system: IGROV-1
GI50: 28.2 µM (inactive)
--
compound: CC(=O)CNC(=O)OC(C)(C)C
target_or_system: IGROV-1
GI50: > 100 µM (inactive)
--
compound: Cc1ccsc1/C=N/Nc1ncccn1
target_or_system: IGROV-1
GI50: > 100 µM (inactive)
--
compound: O=C([C@H](O)[C@@H](O)c1ccc(Br)cc1)C12CC3CC(CC(C3)C1)C2
target_or_system: IGROV-1
GI50: 4.48 µM (inactive)
--
compound: COc1ccc(CNNC(=O)c2cc[n+]([BH2-]C#N)cc2)cc1OC
target_or_system: IGROV-1
GI50: > 100 µM (inactive)
--
compound: CC[C@]12C=CCN3CCC4(c5cc(/N=N/c6ccc([N+](=O)[O-])cc6)c(OC)cc5N(C)[C@H]4[C@@](O)(C(=O)OC)[C@@H]1OC(C)=O)[C@@H]32 (some centres undefined)
target_or_system: IGROV-1
GI50: 11.9 µM (inactive)
--
compound: COc1ccc2cc(C(=O)CCC(=O)O)ccc2c1
target_or_system: IGROV-1
GI50: > 100 µM (inactive)
--
compound: COC(CN(C)C(=O)C(C)NC(=O)c1ccccc1)OC (centres undefined)
target_or_system: IGROV-1
GI50: > 100 µM (inactive)
--
compound: C=C(Cl)C(Cl)(CBr)CCC(Br)C(C)(C)Br (centres undefined)
target_or_system: IGROV-1
GI50: 18.2 µM (inactive)
